# Test: logP(HCOOH) reported with HPLC/MS
# Run Conditions: reversed phase HPLC column, pH 7.8, log p, method [c]: LC-MS, pH 7.8 with 0.001 molar ammonium hydrogen carbonate solution in water, linear gradient 10% to 95% acetonitrile
Quantity Measured: chromatographic logP
Lab note: jot the number down without any unit.

Supply chromatographic logP value. Item: "Cn1nnnc1C(=NOCc1cccc(C2OCCO2)n1)c1ccccc1" 2.47

====

# Test: logP(HCOOH) reported with HPLC/MS
# Run Conditions: method [b]: LC-MS, pH 2.7 with 0.1% formic acid in water and acetonitrile (0.1% formic acid), linear gradient 10% to 95% acetonitrile
Quantity Measured: log p

Some compounds with known log p results, for comparison:
[[record]]
smiles_string = "CCCC#Cc1nc(CON=C(c2ccccc2)c2nnnn2C)c(C)s1"
endpoint_result = "4.24^[b]"

[[record]]
smiles_string = "Cc1nnnn1C(=NOCc1csc(C#CCCc2ccccc2)n1)c1ccccc1"
endpoint_result = "4.44^[b]"

[[record]]
smiles_string = "Cn1nnnc1C(=NOCc1cccc(C#Cc2cccc(F)c2)n1)c1ccccc1"
endpoint_result = "4.16^[b]"

[[record]]
smiles_string = "Cc1ccc(C#Cc2cccc(CON=C(c3ccccc3)c3nnnn3C)n2)cc1"
endpoint_result = "4.44^[b]"


Alright, here's another compound for you.
Supply log p value. Item: "Cn1nnnc1C(=NOCc1cccc(C#Cc2ccc(Oc3ccccc3)cc2)n1)c1ccccc1" 5.08^[b]

====

# Test: logP(HCOOH) reported with HPLC/MS
# Run Conditions: HCOOH (formic acid), logP(HCOOH), HPLC/MS
Classification field: Criterion met = chromatographic logP at or over 2; Criterion not met = chromatographic logP under 2.

Below are worked cases with known answers.
[[record]]
smiles_string = "COc1ccc(CON=C(c2ccccc2)c2nnnn2C)nc1C#CC1CC1"
group_label = "Criterion met"

[[record]]
smiles_string = "CSc1cccc(C(=NOCc2csc(N)n2)c2nnnn2C)c1"
group_label = "Criterion not met"

[[record]]
smiles_string = "CSc1cccc(C(=NOCc2cccc(N)n2)c2nnnn2C)c1"
group_label = "Criterion not met"


Is the recorded value of chromatographic logP equal to or greater than 2 for this molecule? "Cn1nnnc1C(=NOCc1cccc(CO)n1)c1ccccc1" Criterion not met

Is the recorded value of chromatographic logP equal to or greater than 2 for this molecule? "Cc1c(F)ccc(Br)[n+]1[O-]" Criterion not met

Is the recorded value of chromatographic logP equal to or greater than 2 for this molecule? "COc1ccc(CON=C(c2ccccc2)c2nnnn2C)nc1Br" Criterion met

Is the recorded value of chromatographic logP equal to or greater than 2 for this molecule? "CCCCCCN(C=O)c1cccc(C)[n+]1[O-]" Criterion not met

Is the recorded value of chromatographic logP equal to or greater than 2 for this molecule? "Cn1nnnc1C(=NOCc1csc(C#CC2CC2)n1)c1ccccc1" Criterion met

Is the recorded value of chromatographic logP equal to or greater than 2 for this molecule? "CN(C)c1cccc(C(=NO)c2nnnn2C)c1" Criterion not met

Is the recorded value of chromatographic logP equal to or greater than 2 for this molecule? "CN(C)c1cccc(C(=O)c2nnnn2C)c1" Criterion met

Is the recorded value of chromatographic logP equal to or greater than 2 for this molecule? "OCc1nc(Br)ccc1F" Criterion not met

====

# Test: logP(HCOOH) reported with HPLC/MS
# Run Conditions: method [b]: LC-MS, pH 2.7 with 0.1% formic acid in water and acetonitrile (0.1% formic acid), linear gradient 10% to 95% acetonitrile
# maps each entry to its log p

[[record]]
compound = "CCOc1ccc(C#Cc2cccc(CON=C(c3ccccc3)c3nnnn3C)n2)cc1 [Example 227]"
endpoint_result = "4.41^[b]"

[[record]]
compound = "CCCCOc1ccc(C#Cc2nc(CON=C(c3ccccc3)c3nnnn3C)cs2)cc1 [Example 258]"
endpoint_result = "5.44^[b]"

[[record]]
compound = "Cn1nnnc1C(=NOCc1cccc(NCCOC2CCCC2)n1)c1ccccc1 [Example 204]"
endpoint_result = "2.14^[b]"

[[record]]
compound = "Cn1nnnc1C(=NOCc1csc(C#CCC2CCCC2)n1)c1cccc(F)c1 [Example 153]"
endpoint_result = "5.03^[b]"

[[record]]
compound = "COC(C)(C)C#Cc1cccc(CON=C(c2ccccc2)c2nnnn2C)n1 [Example 240]"
endpoint_result = "3.42^[b]"


Supply log p value. Item: Cn1nnnc1C(=NOCc1csc(C#CC2CC2)n1)c1cccc(F)c1 [Example 148] 3.71^[b]

Supply log p value. Item: CCCCc1ccc(C#Cc2nc(CON=C(c3ccccc3)c3nnnn3C)cs2)cc1 [Example 202] 5.82^[b]

Supply log p value. Item: Cc1nnnn1C(=NOCc1csc(C#CCCCC#N)n1)c1ccccc1 [Example 171] 3.02^[b]

Supply log p value. Item: Cn1nnnc1C(=NOCc1csc(C#Cc2ccccc2F)n1)c1ccccc1 [Example 260] 4.15^[b]

====

# Test: logP(HCOOH) reported with HPLC/MS
# Run Conditions: method [a]: HPLC on reversed phase columns, pH 2.3 with 0.1% phosphoric acid and acetonitrile as eluent
# maps each entry to its log p

Some compounds with known log p results, for comparison:
[[record]]
compound = "Cn1nnnc1C(=NOCc1cccc(N(CCC2CC(F)(F)C2(F)F)C(=O)OC(C)(C)C)n1)c1ccccc1 (stereo not shown)"
quantity_measured = "log p"
endpoint_result = "5.05^[a]"

[[record]]
compound = "C#Cc1nc(CON=C(c2ccccc2)c2nnnn2C)cs1"
quantity_measured = "log p"
endpoint_result = "2.77^[a]"

[[record]]
compound = "Cn1nnnc1C(=NOCc1csc(C#C[Si](C)(C)C)n1)c1ccccc1"
quantity_measured = "log p"
endpoint_result = "4.59^[a]"


Supply log p value. Item: Cn1nnnc1C(=NOCc1cccc(C(O)CCc2ccccc2)n1)c1ccccc1 (stereo not shown) 3.35^[a]

====

# Test: logP(HCOOH) reported with HPLC/MS
# Run Conditions: reversed phase HPLC column, pH 2.7, log p, method [b]: LC-MS at pH 2.7 with 0.1% formic acid in water and acetonitrile (0.1% formic acid), linear gradient 10% to 95% acetonitrile
Quantity Measured: chromatographic logP
Lab note: jot the number down without any unit.

[[record]]
smiles_string = "CCCCCCNc1nc(CON=C(c2cccc(SC)c2)c2nnnn2C)cs1"
quantity_measured = "chromatographic logP"
endpoint_result = 3.92

[[record]]
smiles_string = "CSc1cccc(C(=NOCc2csc(C#CC3CCCC3)n2)c2nnnn2C)c1"
quantity_measured = "chromatographic logP"
endpoint_result = 4.86

[[record]]
smiles_string = "CCCCCON(C(=O)OC(C)(C)C)c1cccc(CON=C(c2ccccc2)c2nnnn2C)n1"
quantity_measured = "chromatographic logP"
endpoint_result = 5.25


Alright, here's another compound for you.
Supply chromatographic logP value. Item: "CCCCCCNc1cccc(CON=C(c2cccc(N(C)C)c2)c2nnnn2C)n1" 2.44

====

# Test: logP(HCOOH) reported with HPLC/MS
# Run Conditions: HPLC/MS
Quantity Measured: chromatographic logP

Supply chromatographic logP value. Item: "COC(=O)c1nc(Br)sc1C" 1.84

====

# Test: logP by HPLC on reversed phase columns, method [a], pH 2.3 with 0.1% phosphoric acid and acetonitrile
# Type: physicochemical
# Run Conditions: reversed phase HPLC columns; method [a]: pH 2.3, 0.1% phosphoric acid and acetonitrile as eluent; EEC directive 79/831 Annex V.A8, reversed phase HPLC; read-out: log p
# maps each entry to its chromatographic logP

[[record]]
compound = "CCCCCCOc1cccc(CON=C(c2ccccc2)c2nnnn2C)n1 [Example 20]"
endpoint_result = 5.39


Supply chromatographic logP value. Item: Cn1nnnc1C(=NOCc1cccc(/C=C/C2CCCCC2)n1)c1ccccc1 [Example 93] 5.05

Supply chromatographic logP value. Item: CCCCCSc1cccc(CON=C(c2ccccc2)c2nnnn2C)n1 [Example 74] 5.14

Supply chromatographic logP value. Item: Cn1nnnc1C(=NOCc1csc(C#CC2CC2)n1)c1ccccc1 [Example 70] 3.58

====

# Test: logP(HCOOH) reported with HPLC/MS
# Run Conditions: method [b]: LC-MS, pH 2.7 with 0.1% formic acid in water and acetonitrile (0.1% formic acid), linear gradient 10% to 95% acetonitrile
Quantity Measured: log p

Some molecules with known log p results, for comparison:
[[record]]
molecule = "Cn1nnnc1C(=NOCc1cccc(C#Cc2ccc3ccccc3c2)n1)c1ccccc1 [Example 208]"
quantity_measured = "log p"
endpoint_result = "4.78^[b]"

[[record]]
molecule = "Cn1nnnc1C(=NOCc1cccc(C#Cc2ccc(F)cc2)n1)c1ccccc1 [Example 223]"
quantity_measured = "log p"
endpoint_result = "4.11^[b]"

[[record]]
molecule = "Cn1nnnc1C(=NOCc1csc(C#Cc2ccc(F)cc2)n1)c1ccccc1 [Example 262]"
quantity_measured = "log p"
endpoint_result = "4.16^[b]"

[[record]]
molecule = "Cc1nnnn1C(=NOCc1csc(C#CCCCc2ccccc2)n1)c1ccccc1 [Example 166]"
quantity_measured = "log p"
endpoint_result = "4.84^[b]"

[[record]]
molecule = "Cn1nnnc1C(=NOCc1cccc(C#Cc2ccc(C(F)(F)F)cc2)n1)c1ccccc1 [Example 217]"
quantity_measured = "log p"
endpoint_result = "4.65^[b]"

[[record]]
molecule = "Cn1nnnc1C(=NOCc1cccc(C#CCc2ccccc2)n1)c1ccccc1 [Example 238]"
quantity_measured = "log p"
endpoint_result = "4.09^[b]"

[[record]]
molecule = "CCCCC#Cc1nc(CON=C(c2ccccc2)c2nnnn2C)c(C)s1 [Example 183]"
quantity_measured = "log p"
endpoint_result = "3.37^[b]"

[[record]]
molecule = "Cn1nnnc1C(=NOCc1cccc(C#Cc2ccccc2C(F)(F)F)n1)c1ccccc1 [Example 219]"
quantity_measured = "log p"
endpoint_result = "4.44^[b]"


Supply log p value. Item: CCCCOc1ccc(C#Cc2cccc(CON=C(c3ccccc3)c3nnnn3C)n2)cc1 [Example 226] 5.29^[b]

Supply log p value. Item: Cn1nnnc1C(=NOCc1csc(C#CCCCC#N)n1)c1cccc(F)c1 [Example 154] 3.09^[b]

Supply log p value. Item: COC(C)(C)C#Cc1nc(CON=C(c2ccccc2)c2nnnn2C)cs1 [Example 196] 3.53^[b]

Supply log p value. Item: Cc1sc(C#CC(C)C)nc1CON=C(c1ccccc1)c1nnnn1C [Example 189] 4.21^[b]

Supply log p value. Item: CCCOc1ccc(C#Cc2nc(CON=C(c3ccccc3)c3nnnn3C)cs2)cc1 [Example 256] 5.03^[b]

Supply log p value. Item: COC(=O)CCCC#Cc1nc(CON=C(c2ccccc2)c2nnnn2C)cs1 [Example 195] 3.33^[b]
